target: UniProt Q96A54; test: Measurement of AMPK phosphorylation ability (Assay 1), HEK 293T cells, Western blotting; format: cell-based; parameters: HEK 293T cells (ATCC; CRL-3216, medium; host or cells: HEK 293T; conditions: 25 μM, 10 minutes
Assay Endpoint: pAMPK/AMPK (%)

P: COc1ccc(CN2CCN(C(=O)CCNC(=O)c3ccccc3C)CC2)cc1OC
Q: CCCOc1ccc(OCC(=O)NC2CCN(C(=O)c3ccc(OCC)cc3)CC2)cc1
R: COc1ccc(CN2CCC(NC(=O)COc3ccc([N+](=O)[O-])cc3)CC2)cc1F
Query: Your job: order these 3 records by pAMPK/AMPK (%), ascending. I'd appreciate it if you listed the labels in the requested order.
Response: R, P, Q

---

target: AdipoR1 (Homo sapiens); assay: Measurement of AMPK phosphorylation ability (Assay 1), HEK 293T cells, Western blotting; format: cell-based; design: HEK 293T cells (ATCC; CRL-3216, medium; host or cells: HEK 293T; conditions: 25 μM, 10 minutes
Assay Endpoint: pAMPK/AMPK (%)

Please review the following examples before continuing.
Cc1ccccc1CN1CCC(NC(=O)COc2ccc(C(C)C)cc2)CC1 :: 70.10
COc1ccc(CN2CCN(C(=O)CCNC(=O)c3ccc([N+](=O)[O-])cc3)CC2)cc1 :: 62.79

P: Cc1ccccc1CN1CCN(C(=O)CCNC(=O)c2ccc([N+](=O)[O-])cc2)CC1
Q: COc1ccc(CN2CCN(C(=O)CCNC(=O)c3ccc(Cl)cc3)CC2)c(OC)c1OC
Query: Field: lower pAMPK/AMPK (%) | Options: P / Q Returns: label corresponding to the selected item.
Response: Q
(Q: 34.44%, P: 65.40%)

a: CCCOc1ccc(OCC(=O)NC2CCN(C(=O)c3ccc(C)cc3)CC2)cc1
b: COc1cccc(C(=O)N2CCN(CCC(=O)NC3CC3)CC2)c1
Query: Between these two entries, a and b , state which has the higher pAMPK/AMPK (%). Returns: label corresponding to the selected item.
Response: a
(a: 69.97%, b: 42.05%)

---

Biological target: AdipoR1 (Homo sapiens, UniProt Q96A54)
Sequence (Q96A54 1-375): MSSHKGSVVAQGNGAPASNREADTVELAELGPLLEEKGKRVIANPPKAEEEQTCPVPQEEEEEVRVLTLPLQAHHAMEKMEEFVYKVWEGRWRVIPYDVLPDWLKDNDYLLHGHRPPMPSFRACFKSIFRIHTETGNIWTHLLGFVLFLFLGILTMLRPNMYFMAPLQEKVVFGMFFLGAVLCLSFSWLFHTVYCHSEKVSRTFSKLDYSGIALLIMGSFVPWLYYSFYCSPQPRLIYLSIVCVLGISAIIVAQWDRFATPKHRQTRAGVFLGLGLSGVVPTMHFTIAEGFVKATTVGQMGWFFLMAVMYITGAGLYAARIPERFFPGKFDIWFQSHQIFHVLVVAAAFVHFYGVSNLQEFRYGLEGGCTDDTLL
Experiment: Measurement of AMPK phosphorylation ability (Assay 1), HEK 293T cells, Western blotting
Format: cell-based
Design: HEK 293T cells (ATCC; CRL-3216, medium; host or cells: HEK 293T
Details: 50 μM, 10 minutes
Assay Endpoint: pAMPK/AMPK (%)

NC(=O)c1ccc(OCC(=O)NC2CCN(Cc3ccc(F)c(F)c3)CC2)cc1 :: 60.30
CCc1ccc(OCC(=O)NC2CCN(Cc3ccc(OC)c(F)c3)CC2)cc1 :: 62.88
Cc1ccc(OCC(=O)NC2CCN(Cc3ccc(Cl)c(Cl)c3)CC2)cc1 :: 89.75
COc1ccc(CN2CCN(C(=O)CCNC(=O)c3ccc([N+](=O)[O-])cc3)CC2)cc1F :: 45.94
O=C(COc1ccc(C(=O)c2ccccc2)cc1)NC1CCN(Cc2ccc(Cl)cc2)CC1 :: 82.93
COc1ccc(CN2CCN(C(=O)CCNC(=O)c3ccc(F)cc3F)CC2)cc1OC :: 80.92

P: O=C(COc1ccc(C(=O)c2ccc(Cl)cc2)cc1)NC1CCN(Cc2ccccc2)CC1
Q: CC(C)(C)c1ccc(OCC(=O)NC2CCN(Cc3ccc(F)cc3)CC2)cc1
Query: Between these two entries, P and Q , state which has the higher pAMPK/AMPK (%). Returns: label corresponding to the selected item.
Response: P
